All values here come from patent US20140303084A1.

- subject.of.test: human Factor IXa (human, UniProt P00740 47-191; P00740 227-461)
- assay.comment: cell-based or functional assay
Square brackets hold non-standard residues; d marks the D form. Primed or numbered codes have the meaning given here. Ends that are not written are not given here. * marks the point of attachment. PEG5′ = not defined here; pip = not defined here; Acm = CC(=O)NC*; Sar = CNCC(=O)O
reported.endpoint: EC50 [µM], FXa generation assay

PRIRTVGPGSRSASGKLTCLASYCWLFWTFIA: < 0.5 µM
RRAPGKLTCLASYAWLCWTGIA-NH2 (cysteine pairing not given here) [RRAPGKLTCLASYAWLCWTGIA-CONH2]: > 10 µM
RPGGGKVTCQASYCWPFLARAG: > 20 µM
SRIRTVSPGSRSASGKSTCLASYCWLFWTGIA: < 0.5 µM
C(Acm)GGGG[dF][pip]R[PEG5′][dR]RAPGKLTCLASYCWLFWTGIA (cysteine pairing not given here; reading uncertain; also: printed as C(Acm)GGGGfpipR-PEG5-rRAPGKLTCLASYCWLFWTGIA) [C(Acm)GGGGfpipR-PEG5-rRAPGKLTCLASYCWLFWTGIA]: > 1 µM
KAACLASACWLA: > 20 µM

(Q) I would be grateful if you could share the reported EC50 [µM], FXa generation assay for RRAPGCLTALASYCWLFWTGIA-NH2 (cysteine pairing not given here) [RRAPGCLTALASYCWLFWTGIA-CONH2] .
(A) > 1 µM

(Q) Try this binder next: KLTCLASYC
(A) > 1 µM

(Q) Then what about the binder KLTCLXSYCWLF (not fully specified; Dpr 6) [KLTCL-Dpr-SYCWLF] ?
(A) > 1 µM

(Q) Can you check GAQLDKETCLASYCQLFSTVRR next?
(A) > 20 µM

(Q) Do the same for SKQGRPISSD[dR]RAAGKSTCLASYCWLFWTGIA (not fully specified; printed as SKQGRPISSDrRAAGKSTCLASYCWLFWTGIA; cysteine pairing not given here) [SKQGRPISSDrRAAGKSTCLASYCWLFWTGIA] please
(A) < 0.5 µM

(Q) Cool, now RRAPGKLTCLASYCWLFWT[Sar]IA (not fully specified; printed as RRAPGKLTCLASYCWLFWT-Sar-IA; cysteine pairing not given here) [RRAPGKLTCLASYCWLFWT-Sar-IA]
(A) < 0.5 µM
